- system: TRKA (Homo sapiens (Human))
- Sequence (P04629 441-796): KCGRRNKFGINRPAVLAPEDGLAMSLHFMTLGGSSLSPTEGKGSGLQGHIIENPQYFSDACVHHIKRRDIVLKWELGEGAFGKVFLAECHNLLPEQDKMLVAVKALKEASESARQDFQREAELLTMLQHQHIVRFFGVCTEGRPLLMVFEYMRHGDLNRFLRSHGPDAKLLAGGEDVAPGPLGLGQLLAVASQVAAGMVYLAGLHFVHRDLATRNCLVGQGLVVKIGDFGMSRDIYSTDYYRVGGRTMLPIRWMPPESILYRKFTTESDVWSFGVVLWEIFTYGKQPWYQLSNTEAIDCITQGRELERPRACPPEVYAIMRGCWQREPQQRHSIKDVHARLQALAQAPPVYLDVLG
- protocol-notes: Isolated TRK enzyme assay (HTRF KinEASE-TK), PV3144 TrkA enzyme assay
- cond: arithmetic mean where more than one reading
- Experimental: Isolated TRK Enzyme assays use the HTRF KinEASE-TK kit (Cisbio Cat#62TK0PEJ) with recombinant His-tagged cytoplasmic domains of each TRK receptor sourced from Invitrogen (see table below). […] After the Detection Reagent addition, plates are covered and incubated at room temperature for 60 minutes. HTRF signal is read using an Envision reader, measured as a ratio of emissions at two different wavelengths, 620 nm and 665 nm. […] Where more than one reading was taken, the arithmetic mean is presented.
pIC50: −log10 of the molar value.
value-kind: pIC50

{"columns": ["molecule", "recorded-number"],
 "data": [
  ["CC(CO)n1cc(C(=O)c2cncc(NC(=O)Cc3ccc(Cl)cn3)c2)c2cncc(F)c21 (single isomer, unassigned) [Example 225]", 7.33],
  ["CC(C)n1cc(C(=O)c2ccnc(NC(=O)Cc3cncs3)c2)c2cnccc21 [Example 185]", 5.73],
  ["CC(C)n1cc(C(=O)c2cncc(NC(=O)Cc3ccc(F)cn3)c2)c2cnccc21 [Example 23]", 6.72]
]}

[I] CC(C)(O)Cc1cccc(CC(=O)Nc2cc(C(=O)c3cn(CCO)c4ccncc34)ccn2)c1 [Example 151]
[II] CC(CO)n1cc(C(=O)c2cncc(NC(=O)Cn3ccc(C4CC4)n3)c2)c2cncc(F)c21 (single isomer, unassigned) [Example 215]
Q: Response body: label of entry with the larger pIC50; valid values I , II . Respond using the label that marks the chosen record.
A: II
